assayMethodText: yeast display, Sf9 membrane polyspecificity reagent, FACS + sequencing; frameworks hold sequencing errors
reportedMetric: polyreactivity (PSR sort gate)

// worked examples, polyreactivity (PSR sort gate) included
- chainSequence: "QVQLVESGGGLVQAGGSLRLSCAASGGTFPAYAMGWYRQAPGKERELVASISDDDSTYYADSVKGRFTISRDNAKNTVYLQMNSLKPEDTAVYYCNVEYWYYPSVEYYWTAYDYWGQGTQVTVSS"
  valueMeasured: "low polyreactivity"
- chainSequence: "QVQLVESGGGLVQAGGSLRLSCAASGSIFSTYAMGWSRQAPGKERELVAAITTSGGRTYYADSVKGRFTISRDNAKNTVYLQMNSLKPEDTAVYYCNAVRGGRYGLDYWGQGTQVTVSS"
  valueMeasured: "high polyreactivity"
- chainSequence: "QVQLVESGGGLVQAGGSLRLSCAASGRTIRWYTMGGYRQAPGKEMELVAGISSSGGSTYYADSVKGRFTISRDNAMNTVYLQMNSLKPEDTAVYYCNAQALRLFWRYDYWGQGTQVTVSS"
  valueMeasured: "low polyreactivity"
- chainSequence: "QVQLVESGGGLVQPGGRLLLSSAASGSIFDYYVMGWYRLEPVKERELVAAISWSGASTYYADSVKGRFTISRDNAKNTVYVKMNSLKPEDTAVYYCAADYGVNTLIDYDYWGQGTQVTVSS"
  valueMeasured: "low polyreactivity"

Alright, here's another sequence for you.
## Input Consider the sequence QVQLVESGGGLVQAGGSLRLSCAASGLTFPHYTMGWYRQAPGKEREFVARITGSGGRTYYADSVKGRFTISRDNAKNTVDLQRNSLKPEVTGVYYCARDRGYQSGYDYWGQGTQVSVSS and give its measured polyreactivity (PSR sort gate).
## Output high polyreactivity

---

assayMethodText: yeast display, Sf9 membrane polyspecificity reagent, FACS + sequencing; frameworks hold sequencing errors
reportedMetric: polyreactivity (PSR sort gate)

- chainSequence: "QVQLVESGGGLVQAGGSRRLSCAASGFIFTKYTMGWYRQAPGKERELVAAIRSDGVRTYYADSVKGRFTISRDNAKNTVYLQMNSLKPEDTAVYYCAARSLRYGRGMYYWGQGTQVTVSS"
  reportedMetric: "polyreactivity (PSR sort gate)"
  valueMeasured: "high polyreactivity"
- chainSequence: "QVQLVESGGGLVQAGGSLRLSCAASGLTFYFYAMGWYRQAPGKERELVAAIDWGGGSTYYADSVKGRFTISRDNAKNTVYLQMNSLKPEDTAVYYCAARGYYYNYDVNYWGQGTQVTVSS"
  reportedMetric: "polyreactivity (PSR sort gate)"
  valueMeasured: "low polyreactivity"
- chainSequence: "QVQLVESGGGLVQAGGSLRLSCAASGSIFGTYPMGWYRQAPGKERELVAAITRRGGSTFYADSVKGRFTISRDNAKNTVYLQMNSLKPEDTAVYYCAAPPYYWGQGTQVTVSS"
  reportedMetric: "polyreactivity (PSR sort gate)"
  valueMeasured: "high polyreactivity"
- chainSequence: "QVQLVESGGGLVQAGGSLRLSCAASASTLYSYAMGWYRQAPGKEREFVAAITSDDGSKYYADSVKGRFTISRDNAKNTVYLQMNSLKQEDTAVYYCATAASVEYNYWGEGTQVTVSS"
  reportedMetric: "polyreactivity (PSR sort gate)"
  valueMeasured: "low polyreactivity"

Turning now to a further sequence:
## Input Entry QVQLVESGGGLDQAGGSLRLSCAASGRTFFDYAMGWYRQATGKERELVAAINWSGGRTYYADSVKGRFTISRDNAKNTVYLQMISLKPEDTAVYYCAAIYGSLYPTGQTRRDYYSWGQGTKVTVSS has what polyreactivity (PSR sort gate)?
## Output low polyreactivity

---

assayMethodText: yeast display, Sf9 membrane polyspecificity reagent, FACS + sequencing; frameworks hold sequencing errors
reportedMetric: polyreactivity (PSR sort gate)

Guide cases for polyreactivity (PSR sort gate), answers given:
- chainSequence: "QVQLVESGGGLVQAGGSLRLSCAASGFTFIDYAMGWSRQAPGKERELVAAITRDGGSTYYADSVKGRFTISRDNANNTVYLQMNRLKPEDTAVYYCATVRRVQHWVWYWLWRYDYWGQGTQVTVSS"
  reportedMetric: "polyreactivity (PSR sort gate)"
  valueMeasured: "high polyreactivity"
- chainSequence: "QVQLVESGGGLVQAGGSLRLSCSASGSTFSDNVMGWYRQAPGKERELVAGITRSGGRTYYADSVKGRFTISRDNAKNTVYLQMNSLKPEDTAVYYCAAASSGEYGYWGQGTQVTVSS"
  reportedMetric: "polyreactivity (PSR sort gate)"
  valueMeasured: "low polyreactivity"
- chainSequence: "QVQLVESGGGLVQAGGSLRLSCAASGSTFDAYAMGWYRQAPGKDRELVAGISSGGSYEYADSVKGRFTISRDNAKNTVYLQMNSLIPEDTAVYYCAADSRQSVYYYQPTKFDYWGQGSQVTVSS"
  reportedMetric: "polyreactivity (PSR sort gate)"
  valueMeasured: "low polyreactivity"
- chainSequence: "QVQLVESGGGLVQAGGSLRLSCAGSGITFVAYAMGWYRQAPGKDRELVAAISGGGGSTYYADSVKGRFTISRDNAKNTVYLQMNSLKPEDTAVYDCNAEPYTSSGGYRGYDFDYWGQGTQVTVSS"
  reportedMetric: "polyreactivity (PSR sort gate)"
  valueMeasured: "low polyreactivity"
- chainSequence: "QVQLVESGGGLVQAGGSLRLSCAASGRTFGRYAMGWYRQAHGKERELVAAISWSGGSTYYADSVKGRFTISRDNAKNTVYLQMNNLKPEDTAVYYCAAVTTDGVYAFDYWGQGTQVTVSS"
  reportedMetric: "polyreactivity (PSR sort gate)"
  valueMeasured: "low polyreactivity"

## Input Which polyreactivity (PSR sort gate) value belongs to QVQLVESGGGLVQAGGSLRLSCAASGRIFRRYAMGWYRQAPGKERELVADITYGVDSTYYADSVKGRFTISRDNAKNTVYLQMNSLKPEDTAVYYCNADRTEDLLYRFVGVTYGYWGQGTQVSVSS ?
## Output high polyreactivity

## Input # input sequence: QVQLVESGGGLVQAGGSLRLSCAASGSIFLKYAMGWYRQAPGKERELVATISRGGSTNYADSVKGRFTISRDNAKNTVYLQMNSLKPEDTAVYYCAAKYGRPYGTYGYKSLLVGDMYYWGQGTQVTVSS ; wanted: its polyreactivity (PSR sort gate)
## Output high polyreactivity

## Input Which polyreactivity (PSR sort gate) reading was recorded for the sequence QVQLVESGGGLVQAGGSLRLSCAASGFTFSYYAMGWYRQAPGKERELVASISRSGNTYYADSVKGRFTISRDNAKNTFYLQMNSLKPEDTAVYYCAAKRKSYYSYNFDYWGQGTQVTVSS ?
## Output high polyreactivity

## Input Reported polyreactivity (PSR sort gate), sequence QVQLVESGGGLVQAGGSLRLSCAASGSIFKTNAMGWYRQAPGKERELVAAITGSGGSTYYADSVKGRFTISRDNAKNTVYLQMNSLKPEDTAVYYCAKRSYRPILRWSYDYWGQGTQVTVSS : ____
## Output low polyreactivity

## Input Quick one: polyreactivity (PSR sort gate) for QVQLVESGGGLVQAGGSLRLSCAASGLIFYRNAMGWYRQAPGKERELVAAISKNGGNTYYADSVKGRFTISRDNAKNTVYLQMYSLKPEDTAVYYCAARELYGPFGYWGQGTQVTVSS ?
## Output high polyreactivity

## Input Suppose we examine the sequence QVQLVESGGGLVQAGGSLRLSCAASGNTFSSYAMGWYRQAPGKERELVAAISRRGGSTYYADSVKGRFTISRDNAKNTVYLQMNSLKPEDTAVYYCAADGTGFRYLRYDYWGQGTQVTVSS ; what polyreactivity (PSR sort gate) value has been reported?
## Output high polyreactivity

---

assayMethodText: yeast display, Sf9 membrane polyspecificity reagent, FACS + sequencing; frameworks hold sequencing errors
reportedMetric: polyreactivity (PSR sort gate)

- chainSequence: "QVQLVDSGGGLVQAGGSLRLSCAASGLTFYYYAMGWYRQAPGKESELVSAISATGGRTYYSDSVKGRFTISRDNAKNTVYLQMNSLKPEDTAVYYCAADTPYLRRRLGMDYWGQGTQVTVSS"
  polyreactivity (PSR sort gate): "high polyreactivity"
- chainSequence: "QVQLVESGGVLVQAGGSLRLSCAAYGSTLRRYAMGWYRQAPGKERELVAAISYSGGSTYYADSVKGRFTISRDNAKNTVYLQMNSLKPEDTAVYYCAVVTRKGLYDYWGQGTQVTVSS"
  polyreactivity (PSR sort gate): "high polyreactivity"
- chainSequence: "QVQLVESGGGLVQAGGSLRLSCAASGYIFSDNTMGWYRPAPGKERELVAVITSGTSTSYADSVKGRFTISRDNAKNTVYLQMNSLKPEDTAVYDCARESVTYFWYYTPEVDYWGQGTQVTVSS"
  polyreactivity (PSR sort gate): "low polyreactivity"
- chainSequence: "QVQHVESGGGLVQAGGSLRLSCAASGSTFVYYAMGWYRQPPGKERELVAVITRGGRTYYADSVKGRFTISRDNAKNTVYLQMNSLKPEDTAVYYCNKVTPHYHDTGLDYWGQGTQVTVSS"
  polyreactivity (PSR sort gate): "high polyreactivity"
- chainSequence: "QVQLVESGGGLVQAGGSLRLSCASSGGTFTAYAMGWYSQAPGKERELVAAITTNGGRTYYADSVKGRFTISRDNAKNTVYLQMNSLKPEDTAVDYCNRVSLSRRWFLYDYWGQGTQVTVSS"
  polyreactivity (PSR sort gate): "high polyreactivity"

## Input Can you look up the measured polyreactivity (PSR sort gate) of QVQLVESGGALVQAGGSLRLSCAYSGLTFYGNTMGWYRQAPGKERELDAAITYSGTRTYYADSVKGRFTISRDTAKNTVYLQMNSLKPEDTAVYYCNALSYANSIDTYDYWGQVTQVTVSS for me?
## Output high polyreactivity

## Input I have this sequence here, QVQLVESGGGLVQAGGSLRLSCAASGNTFYKNTMGWYRQAPGKERELVAAISQRGTRTYYADSVKGRFTISRDNAKNSVYLQLYSLNPEDTAVYYCATDLSQVGFDYWGQGTQVTVSS , and I need its recorded polyreactivity (PSR sort gate).
## Output high polyreactivity

## Input Any idea what polyreactivity (PSR sort gate) was measured for QVQLVESGGGLVQAGGSLRLSCAASGSTFVGNSMGWYRKAPGKERELVAAISGSAGRTYYADSVKGRFTISRDNAKNTVYLQMNSLKPEDTAFYYCNKRYRGGVVYSRYDYWGQGTQVTVSS ?
## Output low polyreactivity

## Input Could you share which polyreactivity (PSR sort gate) value was measured for QVQLVESGGGLVQAGGSLRLSCAASGYTFPLYAMGWYRQAPGQERELVADINIGGASTYYADSVKGRFTISRDNAKNTVYLQMNSLKPEDTAVYYSAKEYYDGYFPTFDYDYWGQGTQVTVSS ?
## Output low polyreactivity

## Input Dear colleague, I am looking for the recorded polyreactivity (PSR sort gate) of the following sequence: QVQLVESGGGLVQAGGSLRLSCAASGLILSTYAMGWYRQAPGKERELVAAITWRSGSTYYADSVKGRFTISRDNAKNTVYLQMNSLKPEDTAVYYCNVAPTFPYNGYEYWGQGTQVTVSS
## Output high polyreactivity

## Input I would be grateful if you could share the reported polyreactivity (PSR sort gate) for QVQLVESGGGLVQAGGSLRLSCAASGFTFLWNAMGWYRQAPGKERELVAAISSSGGRTYYADSVKGRFTISRDNAKNTVYLLMNSLKPEDTAVYYCARVYSSPYNFGYWGQGTQVTVSS .
## Output low polyreactivity
